Target: N-formyl peptide receptor 2 (Homo sapiens)
Sequence (P25090 whole entry): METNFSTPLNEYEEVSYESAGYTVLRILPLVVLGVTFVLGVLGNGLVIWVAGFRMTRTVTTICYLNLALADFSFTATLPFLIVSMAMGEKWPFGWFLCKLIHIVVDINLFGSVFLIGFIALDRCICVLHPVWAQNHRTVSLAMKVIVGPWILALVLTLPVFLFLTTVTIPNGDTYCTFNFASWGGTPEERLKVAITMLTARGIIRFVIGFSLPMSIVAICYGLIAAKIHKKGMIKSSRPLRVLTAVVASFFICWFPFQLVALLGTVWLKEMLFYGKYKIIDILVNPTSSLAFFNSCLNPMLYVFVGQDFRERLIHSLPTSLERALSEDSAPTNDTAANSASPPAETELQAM
Assay: Antagonist activity against FPR2 (unknown origin) pre-treated for 5 mins before addition of Wpep by Fluo4 florescence based intracellular Ca2+ mobilization assay
Assay type: functional, cell-based
RECORDED METRIC: IC50 (nM)

>>> reported_value("CC(C)[C@H]1CNC(=O)C(=O)N1C[C@@H]1CCCN1C[C@@H](Cc1ccc2ccccc2c1)N1C[C@@H](Cc2ccc(O)cc2)N(CC2CCCCC2)C(=O)C1=O")
80

###

Entries annotated with measured EC50
Target: N-formyl peptide receptor 2 (Homo sapiens)
Assay: Agonist activity against human FPR2 expressed in human HL60 cells by Fluo-4AM dye based intracellular Ca2+ mobilization assay
Assay type: functional, cell-based, HL-60
RECORDED METRIC: EC50 (nM)

>>> reported_value("O=C(Nc1ccc(Br)cc1)N[C@@H](Cc1ccccc1)C(=O)N1CCCC1")
140
>>> reported_value("O=C(Nc1ccc(Br)cc1)N[C@@H](Cc1ccccc1)C(=O)NN1CCCCNC1=O")
4
>>> reported_value("CCOC(=O)C1CCCN(C(=O)[C@H](Cc2ccccc2)NC(=O)Nc2ccc(Br)cc2)C1 (some centres undefined)")
7
>>> reported_value("COc1ccc(CCNC(=O)Nc2ccccc2)cc1")
3000
>>> reported_value("O=C(Nc1ccc(Br)cc1)N[C@@H](Cc1ccccc1)C(=O)N1CCc2ccccc21")
250
>>> reported_value("CCOC(=O)C1CCN(C(=O)[C@H](Cc2c[nH]c3ccccc23)NC(=O)Nc2ccc(Br)cc2)CC1")
130
>>> reported_value("COc1ccc2[nH]c(SCC(=O)Nc3ccc(OC)c(OC)c3)nc2c1")
4700
>>> reported_value("COc1ccc2[nH]c(SCC(=O)Nc3ccccc3Br)nc2c1")
4030
>>> reported_value("COc1ccc2[nH]c(SCC(=O)Nc3ccc(C(C)=O)cc3)nc2c1")
6000
>>> reported_value("COc1ccc2[nH]c(SCC(=O)Nc3ccccc3Cl)nc2c1")
10000
>>> reported_value("COc1ccc(CCNC(=O)Nc2ccc(Br)cc2)cc1")
100
>>> reported_value("O=C(Nc1ccc(Br)cc1)N[C@@H](Cc1ccccc1)C(=O)N1CCCCC1")
40
>>> reported_value("O=C(Nc1ccc(Cl)cc1)N[C@@H](Cc1ccccc1)C(=O)N1CCCCC1")
50
>>> reported_value("CCc1ccc(NC(=O)CSc2nc3cc(OC)ccc3[nH]2)cc1")
3200

###

Molecular target: UniProtKB P25090
Assay: Agonist activity at FPR2 (unknown origin) by Fluo4 florescence based intracellular Ca2+ mobilization assay
Assay type: functional, cell-based
pEC50: −log10 of the molar value.
RECORDED METRIC: pEC50

>>> reported_value("CCC[C@H]1CNC(=O)C(=O)N1C[C@@H]1CCCN1C[C@@H](Cc1ccc2ccccc2c1)N1C[C@@H](Cc2ccc(O)cc2)N(CC2CCCCC2)C(=O)C1=O")
6.85

###

pEC50 values, listed per item
Molecular target: N-formyl peptide receptor 2 (Homo sapiens)
Experiment: Agonist activity against human FPR2 expressed in human HL60 cells by Fluo-4AM dye based intracellular Ca2+ mobilization assay
Type: functional, cell-based, HL-60
pEC50: −log10 of the molar value.
RECORDED METRIC: pEC50

>>> reported_value("CSc1ccc(NC(=O)N[C@@H](Cc2ccccc2)C(=O)N2CCCCC2)cc1")
6.52
>>> reported_value("CCOc1ccc2[nH]c(SCC(=O)Nc3ccccc3SC)nc2c1")
5.10
>>> reported_value("COc1ccc(CCNC(=O)Nc2ccc(F)cc2)cc1")
6.05
>>> reported_value("COC(=O)Nc1cccc(NC(=O)CSc2nc3cc(OC)ccc3[nH]2)c1")
5.14
>>> reported_value("CCOC(=O)C1CCN(C(=O)[C@H](Cc2ccccc2)NC(=O)Nc2ccc(Br)cc2)CC1")
6.80
>>> reported_value("COc1ccc(CCNC(=O)Nc2ccc(Cl)cc2)cc1")
6.40
